Test system: Escherichia coli
Assay: Antibacterial activity against Escherichia coli assessed as zone of inhibition
Format: functional
READOUT_TYPE: inhibition zone (IZ) (mm)
Give just the number in mm; leave the unit off.

Request: What value of inhibition zone (IZ) has been recorded for this entry: "Cc1nc2c(c(C)nc3c(C#N)cnn32)c(Cl)c1CCCl"
Result: 15.3

Request: What value of inhibition zone (IZ) has been recorded for this entry: "NC(=O)c1c(Nc2ccccc2)nn2c(-c3ccccc3)ccnc12"
Result: 7

Request: What value of inhibition zone (IZ) has been recorded for this entry: "NC(=O)c1c(Nc2ccc(Br)cc2)nn2c(-c3ccc(Br)cc3)ccnc12"
Result: 9

Request: What value of inhibition zone (IZ) has been recorded for this entry: "Cc1cc(-n2ncc3c(=O)n(-c4ccccc4)cnc32)n2ncc(C#N)c2n1"
Result: 13.1

Request: What value of inhibition zone (IZ) has been recorded for this entry: "NC(=O)c1c(Nc2ccccc2)nn2c(-c3ccc(O)cc3)ccnc12"
Result: 9

Request: What value of inhibition zone (IZ) has been recorded for this entry: CN[C@@H]1[C@H](O[C@H]2[C@H](O[C@H]3[C@H](O)[C@@H](O)[C@H](N=C(N)N)[C@@H](O)[C@@H]3N=C(N)N)O[C@@H](C)[C@]2(O)C=O)O[C@@H](CO)[C@H](O)[C@H]1O [STREPTOMYCIN]
Result: 16.4

Request: What value of inhibition zone (IZ) has been recorded for this entry: "COc1ccc(Nc2nn3c(N)c(C#N)c(-c4cc(OC)ccc4OC)nc3c2C(=O)Nc2ccccc2)cc1"
Result: 16

* * *

Tested on: Escherichia coli
Assay: Antibacterial activity against Escherichia coli assessed as zone of inhibition
Assay type: functional
Task for the reader: assign each of the following compounds its reported inhibition zone (IZ).
Give just the number in mm; leave the unit off.

Request: What value of inhibition zone (IZ) has been recorded for this entry: "O=C(Nc1ccccc1)c1cnn2c(-c3ccncc3)ccnc12"
Result: 12

Request: What value of inhibition zone (IZ) has been recorded for this entry: "COc1ccc(Nc2nn3c(-c4ccccc4)cc(-c4ccccc4)nc3c2C(N)=O)cc1"
Result: 13

Request: What value of inhibition zone (IZ) has been recorded for this entry: "CCOC(=O)c1cnn(-c2cc(C)nc3c(C#N)cnn23)c1N"
Result: 15.4

Request: What value of inhibition zone (IZ) has been recorded for this entry: "NC(=O)c1c(Nc2ccc(Br)cc2)nn2c3c(cnc12)CCC3"
Result: 11

Request: What value of inhibition zone (IZ) has been recorded for this entry: "Cc1nc2c(c(C)nc3c(C#N)cnn32)c2c1CCO2"
Result: 16.4

Request: What value of inhibition zone (IZ) has been recorded for this entry: "Nc1nn2c(-c3ccc(S(=O)(=O)c4ccccc4)cc3)ccnc2c1/N=N/c1ccccc1Cl"
Result: 25.7

Request: What value of inhibition zone (IZ) has been recorded for this entry: "COc1ccc(Nc2nn3c(N)c(C#N)c(-c4cccc(C)c4)nc3c2C(=O)Nc2ccccc2)cc1"
Result: 16

Request: What value of inhibition zone (IZ) has been recorded for this entry: "CCOC(=O)c1cnc2c(C(=O)Nc3ccccc3)cnn2c1C"
Result: 10

Request: What value of inhibition zone (IZ) has been recorded for this entry: "CSc1nn2c(C)cc(C)nc2c1-c1nc2ccccc2n1C"
Result: 9

Request: What value of inhibition zone (IZ) has been recorded for this entry: "CN(C)[C@@H]1C(O)=C(C(N)=O)C(=O)[C@@]2(O)C(O)=C3C(=O)c4c(O)cccc4[C@@](C)(O)[C@H]3C[C@@H]12"
Result: 23
